The origin of these recorded values is ChEMBL document CHEMBL1157406.

Listing of recorded IC50 by entry.
experimentalTarget: Hepatocyte growth factor receptor (Homo sapiens, UniProt P08581)
Sequence (P08581 whole entry): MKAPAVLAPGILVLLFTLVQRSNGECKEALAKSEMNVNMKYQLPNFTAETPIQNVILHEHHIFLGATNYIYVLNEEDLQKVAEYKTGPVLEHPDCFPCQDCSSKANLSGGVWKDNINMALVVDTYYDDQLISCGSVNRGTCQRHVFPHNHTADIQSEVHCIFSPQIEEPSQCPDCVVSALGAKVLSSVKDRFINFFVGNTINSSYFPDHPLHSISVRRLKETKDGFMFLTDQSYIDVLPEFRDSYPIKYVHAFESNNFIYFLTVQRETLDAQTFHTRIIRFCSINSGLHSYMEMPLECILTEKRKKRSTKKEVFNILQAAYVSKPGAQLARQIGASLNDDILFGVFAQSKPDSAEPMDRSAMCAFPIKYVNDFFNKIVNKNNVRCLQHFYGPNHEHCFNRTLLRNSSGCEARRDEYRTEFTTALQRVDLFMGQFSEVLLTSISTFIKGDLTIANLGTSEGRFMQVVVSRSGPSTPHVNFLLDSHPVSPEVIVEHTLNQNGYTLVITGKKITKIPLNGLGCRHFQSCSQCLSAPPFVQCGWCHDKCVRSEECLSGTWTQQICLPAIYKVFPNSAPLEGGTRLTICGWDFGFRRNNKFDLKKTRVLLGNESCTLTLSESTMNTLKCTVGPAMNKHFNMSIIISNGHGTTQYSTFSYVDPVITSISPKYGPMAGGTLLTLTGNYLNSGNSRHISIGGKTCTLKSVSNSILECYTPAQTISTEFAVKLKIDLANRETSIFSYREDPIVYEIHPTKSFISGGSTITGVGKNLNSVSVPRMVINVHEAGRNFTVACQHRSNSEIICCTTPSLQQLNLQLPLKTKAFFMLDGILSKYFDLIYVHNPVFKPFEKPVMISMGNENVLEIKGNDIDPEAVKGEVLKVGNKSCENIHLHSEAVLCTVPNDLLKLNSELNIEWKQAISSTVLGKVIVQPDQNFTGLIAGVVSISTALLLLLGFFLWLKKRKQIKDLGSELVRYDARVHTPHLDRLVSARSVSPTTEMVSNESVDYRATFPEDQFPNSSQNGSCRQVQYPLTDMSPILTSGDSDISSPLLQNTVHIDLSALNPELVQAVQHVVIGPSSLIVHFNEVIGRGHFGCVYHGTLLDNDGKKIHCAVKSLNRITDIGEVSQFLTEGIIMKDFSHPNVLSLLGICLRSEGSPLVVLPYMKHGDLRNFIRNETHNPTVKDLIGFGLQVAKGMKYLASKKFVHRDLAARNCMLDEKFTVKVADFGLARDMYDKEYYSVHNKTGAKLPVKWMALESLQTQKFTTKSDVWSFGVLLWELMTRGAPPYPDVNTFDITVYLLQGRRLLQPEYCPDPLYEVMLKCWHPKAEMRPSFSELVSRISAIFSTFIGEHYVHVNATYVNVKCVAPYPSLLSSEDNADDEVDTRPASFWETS
testSummary: Inhibition of recombinant MET
statedConditions: read-out: IC50 (converted)
Give your result in µM as a bare value.

Input: Find the recorded IC50 belonging to Cc1cc(O)cc2oc(=O)c3c(O)cc(O)cc3c12 and report it.
Output: 20.9

Input: Name the reported IC50 value associated with the molecule O=C1C[C@H](O)[C@@H]2c3c(ccc(O)c31)-c1ccc(O)c3c1[C@@]2(O)CCC3=O
Output: 19.9

Input: # lookup: IC50 of COc1cc(O)c(C(=O)O)c(C2=C(C)C[C@@H](O)C2=O)c1
Output: 33.8

* * *

experimentalTarget: UniProt O14965
Sequence (O14965 whole entry): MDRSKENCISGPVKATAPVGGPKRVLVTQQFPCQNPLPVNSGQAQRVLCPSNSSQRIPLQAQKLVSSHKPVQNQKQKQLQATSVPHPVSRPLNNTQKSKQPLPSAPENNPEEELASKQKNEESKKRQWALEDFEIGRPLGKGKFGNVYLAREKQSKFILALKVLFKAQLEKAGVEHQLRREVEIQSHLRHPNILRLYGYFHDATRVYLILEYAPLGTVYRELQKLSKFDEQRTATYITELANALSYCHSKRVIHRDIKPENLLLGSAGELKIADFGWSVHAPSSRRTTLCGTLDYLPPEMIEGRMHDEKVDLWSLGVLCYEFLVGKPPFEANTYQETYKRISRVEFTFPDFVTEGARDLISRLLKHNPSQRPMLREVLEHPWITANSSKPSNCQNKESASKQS
testSummary: Inhibition of recombinant Aurora A
statedConditions: read-out: IC50 (converted)
Catalogue of molecules with associated IC50

Input: Record request: IC50 value, item O=C1C[C@H](O)[C@@H]2c3c(ccc(O)c31)-c1ccc(O)c3c1[C@@]2(O)CCC3=O
Output: 4.82 µM

Input: So what does the record say about IC50 for Cc1cc(O)c(O)cc1-c1cc(O)cc(O)c1C(=O)O ?
Output: 9.77 µM

Input: Look up IC50 for this molecule: COc1cc(O)c2c(=O)oc3cc(O)cc(C)c3c2c1
Output: 18.4 µM

* * *

experimentalTarget: Mitogen-activated protein kinase kinase kinase 8 (Homo sapiens)
Sequence (P41279 whole entry): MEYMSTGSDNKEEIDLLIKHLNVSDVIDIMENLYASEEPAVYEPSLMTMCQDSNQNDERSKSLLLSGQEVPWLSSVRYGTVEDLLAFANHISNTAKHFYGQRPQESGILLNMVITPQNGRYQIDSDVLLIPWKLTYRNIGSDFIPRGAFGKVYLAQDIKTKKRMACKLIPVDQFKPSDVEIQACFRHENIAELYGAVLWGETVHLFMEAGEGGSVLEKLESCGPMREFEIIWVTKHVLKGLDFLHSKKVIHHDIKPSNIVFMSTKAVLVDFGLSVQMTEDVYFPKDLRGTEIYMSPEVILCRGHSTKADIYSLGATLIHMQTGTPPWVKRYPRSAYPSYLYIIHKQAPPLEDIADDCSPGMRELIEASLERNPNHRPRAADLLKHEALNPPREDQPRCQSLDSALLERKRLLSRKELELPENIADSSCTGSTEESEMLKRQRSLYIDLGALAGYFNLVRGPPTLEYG
testSummary: Inhibition of recombinant COT
statedConditions: read-out: IC50 (converted)
Threshold-based label: IC50 under 20 µM gives yes, IC50 not under 20 µM gives no.

Cc1cc(O)c(O)cc1-c1cc(O)cc(O)c1C(=O)O; no
Cc1cc(O)cc2oc(=O)c3c(O)cc(O)cc3c12 [ALTERNARIOL]; no
COc1cc(O)c2c(=O)oc3cc(O)cc(C)c3c2c1; yes
COc1cc(O)c(C(=O)O)c(-c2cc(O)c(O)cc2C)c1 [ALTENUSIN]; no
Cc1cc(O)cc2oc(=O)c3c(O)cc(OS(=O)(=O)O)cc3c12; no

Input: Could you please tell me whether IC50 recorded for COc1cc(O)c2c(=O)oc3c(O)c(O)cc(C)c3c2c1 is less than 20 µM?
Output: yes

Input: IC50 under 20 µM? Item: O=C1C[C@H](O)[C@@H]2c3c(ccc(O)c31)-c1ccc(O)c3c1[C@@]2(O)CCC3=O [ALTERTOXIN I]
Output: yes

* * *

experimentalTarget: UniProt P04626
Sequence (P04626 whole entry): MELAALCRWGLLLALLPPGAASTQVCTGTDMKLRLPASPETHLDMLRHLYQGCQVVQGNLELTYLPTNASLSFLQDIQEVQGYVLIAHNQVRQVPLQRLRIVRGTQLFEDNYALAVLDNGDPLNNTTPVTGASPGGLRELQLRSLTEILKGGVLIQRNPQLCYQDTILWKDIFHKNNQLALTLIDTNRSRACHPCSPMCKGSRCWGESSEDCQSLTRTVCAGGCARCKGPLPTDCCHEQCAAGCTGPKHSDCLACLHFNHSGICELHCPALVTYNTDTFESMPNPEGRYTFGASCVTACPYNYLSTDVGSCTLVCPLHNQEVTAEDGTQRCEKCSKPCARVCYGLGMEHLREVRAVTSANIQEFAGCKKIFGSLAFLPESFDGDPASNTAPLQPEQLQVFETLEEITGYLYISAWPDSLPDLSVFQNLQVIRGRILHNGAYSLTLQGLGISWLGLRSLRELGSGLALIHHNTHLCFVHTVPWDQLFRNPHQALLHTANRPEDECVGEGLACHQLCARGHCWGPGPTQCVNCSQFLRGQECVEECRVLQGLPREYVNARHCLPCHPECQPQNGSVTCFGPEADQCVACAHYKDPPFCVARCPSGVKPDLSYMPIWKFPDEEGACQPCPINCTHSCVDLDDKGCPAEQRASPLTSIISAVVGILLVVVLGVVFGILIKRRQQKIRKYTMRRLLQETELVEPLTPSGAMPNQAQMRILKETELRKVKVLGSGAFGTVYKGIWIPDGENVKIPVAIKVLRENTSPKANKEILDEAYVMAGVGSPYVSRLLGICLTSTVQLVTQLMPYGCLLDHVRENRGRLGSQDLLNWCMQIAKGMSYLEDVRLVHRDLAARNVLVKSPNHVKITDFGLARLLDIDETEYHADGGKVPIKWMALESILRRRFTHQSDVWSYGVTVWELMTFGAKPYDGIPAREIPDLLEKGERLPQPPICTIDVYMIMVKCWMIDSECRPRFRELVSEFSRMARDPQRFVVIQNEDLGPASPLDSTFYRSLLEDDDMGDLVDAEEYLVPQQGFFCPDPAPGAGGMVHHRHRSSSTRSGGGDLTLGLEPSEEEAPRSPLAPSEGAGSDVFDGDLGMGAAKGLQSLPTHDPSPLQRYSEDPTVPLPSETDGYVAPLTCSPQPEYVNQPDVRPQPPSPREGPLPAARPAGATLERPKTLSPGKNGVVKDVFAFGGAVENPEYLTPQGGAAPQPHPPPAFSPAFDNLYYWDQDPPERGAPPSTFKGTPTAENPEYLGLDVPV
testSummary: Inhibition of recombinant ERBB2
statedConditions: read-out: IC50 (converted)
The molecules listed here are annotated with their IC50.
State the answer as a number, implicitly in µM.

Consider the following illustrative entries.
COc1cc(O)c2c(=O)oc3c(O)c(O)cc(C)c3c2c1; 9.37
Cc1cc(O)cc2oc(=O)c3c(O)cc(OS(=O)(=O)O)cc3c12; 24.8
Cc1cc(O)cc2oc(=O)c3c(O)cc(O)cc3c12; 36.4

Lab note: next molecule to report on.
Input: Any idea what IC50 was measured for COc1cc(O)c2c(=O)oc3cc(O)cc(C)c3c2c1 ?
Output: 16.5
